Catalogue of AUC values
TEST_DETAILS: Population PK of allopurinol and oxypurinol in HIE neonates
Format: in vivo, human
CONDITION_NOTES: human, plasma, intravenous, 20 mg/kg
Please append the unit to your numeric answer.

MOLECULE | ASSAY_READOUT | RECORDED_VALUE
Oc1ncnc2[nH]ncc12 [allopurinol] | AUC | 160000 ng·h/mL

Record summary for O=c1[nH]c(=O)c2c[nH]nc2[nH]1 [oxypurinol] : reported AUC = 37400 ng·h/mL
